Record form. Attribute: hEphA8-SEAP-: absorbance at 450 nm, percentage with respect to hEphA4-SEAP-His as 100%. Fill in for each entry.
# target.or.test.system: T1, human EphA8 (Homo sapiens, UniProt P29322)
# T1 construct: a protein of the extracellular region of each human Eph receptor fused with the SEAP protein and the His tag; made in house; host or cells: Expi293F cells (culture supernatant)
# T1 sequence (P29322 28-542 limits assumed): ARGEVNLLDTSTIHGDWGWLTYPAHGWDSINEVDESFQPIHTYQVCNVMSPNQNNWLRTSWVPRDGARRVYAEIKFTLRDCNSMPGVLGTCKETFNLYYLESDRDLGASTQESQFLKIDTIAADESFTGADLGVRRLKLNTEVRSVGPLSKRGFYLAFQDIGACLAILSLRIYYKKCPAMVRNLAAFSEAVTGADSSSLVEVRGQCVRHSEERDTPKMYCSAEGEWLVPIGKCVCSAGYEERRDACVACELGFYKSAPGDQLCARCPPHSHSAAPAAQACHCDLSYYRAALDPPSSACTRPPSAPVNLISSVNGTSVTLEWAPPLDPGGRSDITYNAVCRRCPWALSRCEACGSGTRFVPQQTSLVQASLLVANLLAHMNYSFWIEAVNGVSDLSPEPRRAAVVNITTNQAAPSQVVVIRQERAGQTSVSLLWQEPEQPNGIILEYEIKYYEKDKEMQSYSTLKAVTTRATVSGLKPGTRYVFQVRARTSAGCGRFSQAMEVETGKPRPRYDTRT
# test.description: Selectivity ELISA of humanized antibodies for human Eph receptor
# Type: binding
# study.conditions: coated protein 1 nM
Write the value in % as a bare number.

Task: Give the reported hEphA8-SEAP-: absorbance at 450 nm, percentage with respect to hEphA4-SEAP-His as 100% for this molecule. 67 (antibody, V domains shown, synthetic humanized antibody heavy chain variable region sequence; synthetic humanized antibody light chain variable region sequence) VH: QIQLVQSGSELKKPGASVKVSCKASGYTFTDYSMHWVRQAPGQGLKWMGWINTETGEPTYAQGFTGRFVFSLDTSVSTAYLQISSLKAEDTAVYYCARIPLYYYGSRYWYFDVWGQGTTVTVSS VL: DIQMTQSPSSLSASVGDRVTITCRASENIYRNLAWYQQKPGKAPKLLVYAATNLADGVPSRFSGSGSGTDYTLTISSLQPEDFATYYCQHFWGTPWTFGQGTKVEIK
Result: 4.7

Task: Give the reported hEphA8-SEAP-: absorbance at 450 nm, percentage with respect to hEphA4-SEAP-His as 100% for this molecule. 90 (antibody, V domains shown, constant regions without entry; synthetic humanized antibody light chain variable region sequence; synthetic humanized antibody heavy chain variable region sequence) VL: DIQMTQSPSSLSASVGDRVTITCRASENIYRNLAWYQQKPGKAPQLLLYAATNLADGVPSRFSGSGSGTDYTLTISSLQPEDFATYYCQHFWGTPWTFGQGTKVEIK VH: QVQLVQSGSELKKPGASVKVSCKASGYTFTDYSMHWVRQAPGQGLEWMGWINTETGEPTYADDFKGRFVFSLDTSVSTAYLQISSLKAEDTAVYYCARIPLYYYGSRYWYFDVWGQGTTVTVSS
Result: 5.4

Task: Give the reported hEphA8-SEAP-: absorbance at 450 nm, percentage with respect to hEphA4-SEAP-His as 100% for this molecule. 135 (antibody, V domains shown, synthetic humanized antibody heavy chain variable region sequence; synthetic humanized antibody light chain variable region sequence) VH: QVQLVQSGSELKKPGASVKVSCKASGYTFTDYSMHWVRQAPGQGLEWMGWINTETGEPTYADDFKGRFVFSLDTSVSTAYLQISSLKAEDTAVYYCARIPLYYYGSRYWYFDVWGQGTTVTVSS VL: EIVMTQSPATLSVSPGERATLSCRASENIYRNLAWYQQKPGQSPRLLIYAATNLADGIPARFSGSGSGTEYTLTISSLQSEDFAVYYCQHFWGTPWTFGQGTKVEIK
Result: 5.0

Task: Give the reported hEphA8-SEAP-: absorbance at 450 nm, percentage with respect to hEphA4-SEAP-His as 100% for this molecule. 89 (antibody, V domains shown, constant regions without entry; synthetic humanized antibody light chain variable region sequence; synthetic humanized antibody heavy chain variable region sequence) VL: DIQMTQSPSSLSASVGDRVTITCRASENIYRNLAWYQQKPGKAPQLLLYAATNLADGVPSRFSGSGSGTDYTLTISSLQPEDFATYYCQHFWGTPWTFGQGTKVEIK VH: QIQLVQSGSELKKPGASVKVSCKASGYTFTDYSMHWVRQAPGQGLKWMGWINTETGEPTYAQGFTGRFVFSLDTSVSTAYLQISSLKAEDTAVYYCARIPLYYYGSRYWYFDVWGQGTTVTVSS
Result: 5.7
